system: SNB-75 CNS; test: NCI tumour cell line growth inhibition, 48 h; in the data active = GI50 below about 0.43 µM; inactive = the rest
Assign a class; possible classes are true = active, false = inactive

Inquiry: Could you kindly confirm the outcome this assay logged for `COc1cccc2c1C(=N)c1c(O)c3c(c(O)c1C2=O)C[C@@](O)(C(C)=O)C[C@@H]3O[C@H]1C[C@H](N)[C@H](O)[C@H](C)O1` ?
Reply text: true

Inquiry: Could you kindly confirm the outcome this assay logged for `CN(c1ccc(NC(=O)Nc2c(Cl)cccc2Cl)cc1)c1ccnc(Nc2cccc(CS(C)(=O)=O)c2)n1` ?
Reply text: false

Inquiry: Could you kindly confirm the outcome this assay logged for `CN(C)C/C=C/C(=O)Nc1ccc(C(=O)N[C@@]2(C)CCC[C@@H](Nc3ncc(Cl)c(-c4c[nH]c5ccccc45)n3)C2)nc1` ?
Reply text: true

Inquiry: Could you kindly confirm the outcome this assay logged for `COc1ccc2c(c1)C(=O)/C(=C/c1cccc(OCC(=O)c3ccccc3)c1)O2` ?
Reply text: false

====

tested on: CAKI-1 renal; test: NCI tumour cell line growth inhibition, 48 h; in the data active means GI50 below about 0.43 µM; inactive means the rest
Assign a class; possible classes are active, inactive

Inquiry: Could you kindly confirm the outcome this assay logged for `Cc1cc(Cl)ccc1OCC(=O)Nc1nc2c(Cl)cccc2s1` ?
Reply text: inactive

Inquiry: Could you kindly confirm the outcome this assay logged for NC(CSC(c1ccccc1)(c1ccccc1)c1ccccc1)C(=O)NCC(=O)O (stereo not given) ?
Reply text: inactive

Inquiry: Could you kindly confirm the outcome this assay logged for `N[C@H](C(=O)O)[C@@H]1CC(Cl)=NO1` ?
Reply text: inactive

Inquiry: Could you kindly confirm the outcome this assay logged for `COc1cccc2c1C(=N)c1c(O)c3c(c(O)c1C2=O)C[C@@](O)(C(C)=O)C[C@@H]3O[C@H]1C[C@H](N)[C@H](O)[C@H](C)O1` ?
Reply text: inactive

Inquiry: Could you kindly confirm the outcome this assay logged for `Nc1ncc(-c2cnn(C3CCNCC3)c2)cc1-c1nc2cc(Cl)ccc2o1` ?
Reply text: inactive

Inquiry: Could you kindly confirm the outcome this assay logged for `CS(=O)(=O)CCNCc1coc(-c2ccc3ncnc(Nc4ccc(OCc5ccccc5)cc4)c3c2)c1` ?
Reply text: inactive

Inquiry: Could you kindly confirm the outcome this assay logged for `N/N=C\c1c2ccccc2c(=O)n2c1oc1ccccc12` ?
Reply text: inactive

Inquiry: Could you kindly confirm the outcome this assay logged for `[N-]=[N+]=NCCCn1c2c(c3ccc([N+](=O)[O-])cc3c1=O)C(=O)c1ccccc1-2` ?
Reply text: inactive

Inquiry: Could you kindly confirm the outcome this assay logged for `COC(=O)c1ccc2[nH]c(O)c(C(=Nc3ccc(N(C)C(=O)CN4CCN(C)CC4)cc3)c3ccc4c(c3)OCO4)c2c1` ?
Reply text: active

Inquiry: Could you kindly confirm the outcome this assay logged for `O=C(Oc1ccc[nH]c1=O)c1cc([N+](=O)[O-])cc([N+](=O)[O-])c1` ?
Reply text: inactive

====

test system: HT29 colon; assay: NCI tumour cell line growth inhibition, 48 h
Field: TGI. Provide a value for each of the compounds that follow.
Return type: number; implicit unit µM.

Inquiry: Need TGI of `O=C1/C(=C\c2ccc([N+](=O)[O-])cc2)N(S(=O)(=O)c2ccccc2)c2ncccc21` , thanks.
Reply text: 35

Inquiry: Need TGI of `Nc1ncc(-c2cnn(C3CCNCC3)c2)cc1-c1nc2cc(Cl)ccc2o1` , thanks.
Reply text: 1.25

Inquiry: Need TGI of O=C1/C(=C/C=C/c2ccccc2)CCC1CNc1ccccc1 (configuration not stated) , thanks.
Reply text: 63.9

Inquiry: Need TGI of CC1(C)C2CCC1(C)C(N/C(Sc1ccccc1)=C(/C(Cl)=C(Cl)Cl)[N+](=O)[O-])C2 (configuration not stated) , thanks.
Reply text: 30.7

Inquiry: Need TGI of `N#C[S-].[La+3].c1cnc2c(c1)ccc1cccnc12.c1cnc2c(c1)ccc1cccnc12.c1cnc2c(c1)ccc1cccnc12` , thanks.
Reply text: 18

Inquiry: Need TGI of CC(C)(C)C1CCC(=O)/C(=C/CC2CC(=O)N(c3ccccc3)C(=O)C2)C1 (configuration not stated) , thanks.
Reply text: 43.6

Inquiry: Need TGI of `CCC(=O)OC[n+]1ccc2c(C)c3[nH]c4ccccc4c3c(C)c2c1` , thanks.
Reply text: 2.36

====

Field: TGI. Provide a value for each of the molecules that follow.
tested on: NCI-H460 lung; test: NCI tumour cell line growth inhibition, 48 h

Inquiry: Need TGI of `COc1ccc2nc3cc(Cl)ccc3c(Sc3ccc([N+](=O)[O-])cc3C)c2c1` , thanks.
Reply text: > 100 µM

Inquiry: Need TGI of `CN(/N=C/c1ccc(C(=O)O)cc1)C1=NCCCCN1` , thanks.
Reply text: > 100 µM

Inquiry: Need TGI of `COc1ccc(Cn2c3c(cc(OC(C)=O)c2=O)Cc2ccccc2-3)cc1` , thanks.
Reply text: 15 µM

Inquiry: Need TGI of `CCOC(=O)c1sc(=S)n(-c2ccc(Cl)cc2)c1-n1cc(-c2ccccc2)c(C#N)c1N` , thanks.
Reply text: > 100 µM

Inquiry: Need TGI of `COc1cc(NS(=O)(=O)c2ccc(C)cc2)c2nccnc2c1` , thanks.
Reply text: > 100 µM

====

test system: KM12 colon; assay: NCI tumour cell line growth inhibition, 48 h
Measure: TGI

Inquiry: Need TGI of `Cc1cn(-c2cc(NC(=O)c3cccc(C#Cc4cccc5[nH]nc(N)c45)c3)cc(C(F)(F)F)c2)cn1` , thanks.
Reply text: > 100 µM

Inquiry: Need TGI of `O=C(O)CO[C@@]12C#C/C=C\C#C[C@@H]3N(C(=O)Oc4ccccc4)c4ccccc4[C@]14O[C@@]34CCC2` , thanks.
Reply text: 60.3 µM

Inquiry: Need TGI of `COc1cc(C=O)c(-c2c(C=O)ccc3c2OCO3)c(OC)c1OC` , thanks.
Reply text: > 100 µM

Inquiry: Need TGI of `O=C(O)CCCc1ccc2ccc3ccccc3c2c1` , thanks.
Reply text: > 100 µM

Inquiry: Need TGI of CC12C=CC(C)(C3C(=O)C4C(C(=O)C31)C1(C)C=CC4(C)S1=O)S2=O (stereo unspecified) , thanks.
Reply text: > 100 µM

Inquiry: Need TGI of O=C(/C=C/c1ccc(O)c(O)c1)OCC(OC(=O)/C=C/c1ccc(O)c(O)c1)C(=O)O (stereo unspecified) , thanks.
Reply text: > 100 µM

Inquiry: Need TGI of `CCC(CC)NC1=C(NC(C)=O)C(=O)c2ccccc2C1=O` , thanks.
Reply text: > 50 µM

Inquiry: Need TGI of `CCN1C[C@]2(C)CC[C@H](O)C34C1C(C[C@@H]32)[C@@]1(O)CC[C@H]2C[C@@H]4[C@@H]1[C@H]2O` , thanks.
Reply text: > 100 µM

Inquiry: Need TGI of `CCOC(=O)/C=C(\C(=O)OCC)n1cc(C)c(=O)n(Cc2cn(CCCCOC(C)=O)nn2)c1=O` , thanks.
Reply text: 33.3 µM

Inquiry: Need TGI of Cc1ccc(C2=C(c3ccc(C)cc3)C3(c4ccc(C)cc4)C4C(=O)OC(=O)C4C2(c2ccc(C)cc2)S3=O)cc1 (stereo unspecified) , thanks.
Reply text: 76.1 µM

Inquiry: Need TGI of `CN(C)CCC(=O)N1C/C(=C\c2ccc(Cl)c(Cl)c2)C(=O)/C(=C/c2ccc(Cl)c(Cl)c2)C1` , thanks.
Reply text: 0.948 µM

====

Field: TGI. Provide a value for each of the compounds that follow.
system: NCI-H23 lung; assay: NCI tumour cell line growth inhibition, 48 h

Inquiry: Need TGI of `COc1ccc2c(c1)/C(=C\c1c(Cl)[nH]c3cc(C)c(OC)cc13)C(=O)N2` , thanks.
Reply text: 2.9 µM

Inquiry: Need TGI of `CCN1C[C@]2(C)CC[C@H](O)C34C1C(C[C@@H]32)[C@@]1(O)CC[C@H]2C[C@@H]4[C@@H]1[C@H]2O` , thanks.
Reply text: > 100 µM

Inquiry: Need TGI of `CN(C)CCNC(=O)c1cccc2c(=O)c3ccccc3oc12` , thanks.
Reply text: > 100 µM

Inquiry: Need TGI of `CCCCCCCCCCCC(=O)OCCOCCOCCOCCOCCOC(=O)CCCCCCCCCCC` , thanks.
Reply text: > 100 µM

Inquiry: Need TGI of COc1cc(C2c3cc4c(cc3OC(C)(N3CCCC3)C2C)OCO4)cc(OC)c1OC (stereo not drawn) , thanks.
Reply text: 6.32 µM

Inquiry: Need TGI of CCCCCCCC(CC(=O)NC(CO)C(=O)NC(CO)CC(C)C)OC(=O)CC(CCCCCCC)OC(=O)CC(CCCCCCC)OC1OC(C)C(O)C(OC2OC(C)C(OC(C)=O)C(O)C2O)C1O (stereo not drawn) , thanks.
Reply text: 22 µM

Inquiry: Need TGI of `CCCCCCNCCc1cnc[nH]1` , thanks.
Reply text: > 100 µM

Inquiry: Need TGI of O=S(=O)(C1=CC(S(=O)(=O)c2ccccc2)CN(Cc2ccccc2)C1c1cccc2ccccc12)c1ccccc1 (stereo not drawn) , thanks.
Reply text: > 69 µM
